What follows is a record of Ki for Cannabinoid receptor 1 (Homo sapiens).
Value expressed in µM; do not type the unit.

Guide cases for Ki, answers given:
CN1CCN(NC(=O)c2cnn(-c3ccc(Cl)cc3Cl)c2-c2ccc(Cl)cc2)CC1
16
O=C(NC1CCCCCC1)c1cnn(-c2ccc(Cl)cc2Cl)c1-c1ccc(I)cc1
1.1

# return Ki of `O=C(NN1CCCCC1)c1cnn(-c2ccc(Cl)cc2Cl)c1-c1ccc(I)cc1` (system: Cannabinoid receptor 1 (Homo sapiens))
# Sequence (P21554 whole entry): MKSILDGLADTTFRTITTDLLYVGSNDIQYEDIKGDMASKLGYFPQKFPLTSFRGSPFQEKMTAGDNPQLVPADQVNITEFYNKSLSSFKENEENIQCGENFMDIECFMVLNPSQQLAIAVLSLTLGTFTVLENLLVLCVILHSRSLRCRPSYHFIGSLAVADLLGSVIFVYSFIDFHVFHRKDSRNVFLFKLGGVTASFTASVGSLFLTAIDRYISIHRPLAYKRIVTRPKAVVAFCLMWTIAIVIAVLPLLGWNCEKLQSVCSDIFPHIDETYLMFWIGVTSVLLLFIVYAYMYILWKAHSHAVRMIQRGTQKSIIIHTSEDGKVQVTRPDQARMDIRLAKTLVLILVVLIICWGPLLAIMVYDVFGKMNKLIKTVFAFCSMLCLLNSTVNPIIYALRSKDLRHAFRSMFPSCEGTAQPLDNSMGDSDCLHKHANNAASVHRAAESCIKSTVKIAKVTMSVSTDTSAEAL
1.3

# return Ki of `O=C(NC1CC1)c1cnn(-c2ccc(Cl)cc2Cl)c1-c1ccc(Cl)cc1` (system: Cannabinoid receptor 1 (Homo sapiens))
0.85
